# Tested Target: Alpha-2C adrenergic receptor (Homo sapiens) (UniProt P18825)
# Sequence (P18825 whole entry, looked up): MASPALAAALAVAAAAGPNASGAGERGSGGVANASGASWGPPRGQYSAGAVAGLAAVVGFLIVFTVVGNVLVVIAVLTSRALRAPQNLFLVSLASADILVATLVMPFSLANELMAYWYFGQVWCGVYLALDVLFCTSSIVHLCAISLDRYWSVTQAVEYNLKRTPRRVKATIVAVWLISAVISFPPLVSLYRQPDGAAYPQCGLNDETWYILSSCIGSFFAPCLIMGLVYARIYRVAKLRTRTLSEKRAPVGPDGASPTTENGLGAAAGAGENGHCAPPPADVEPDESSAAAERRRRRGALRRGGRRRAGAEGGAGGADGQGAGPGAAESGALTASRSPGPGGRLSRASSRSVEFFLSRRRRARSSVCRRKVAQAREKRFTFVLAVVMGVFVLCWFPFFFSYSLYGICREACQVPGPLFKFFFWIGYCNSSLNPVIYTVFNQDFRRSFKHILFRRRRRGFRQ
# Method: modulators of alpha2C/GIRK thallium flux, primary screen, cell-based, HEK293 alpha2C/GIRK1/2 (AID 624);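 note: slope of fluorescence ratio to pre-addition baseline per second over 15 to 24 s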
# Run Parameters: thallium flux BTC fluorescence, at 10 µM, actives lie on both sides
Where a SMILES comes first, the peptide text is derived from it. The star is where a group is joined. Boc = CC(C)(C)OC(=O)*
Measured slope of individual entries
// return just the number, without any unit appended

Compound	Tested Target	slope
O=S(=O)(Nc1nc2ccccc2nc1NCc1ccco1)c1cccs1	Alpha-2C adrenergic receptor (Homo sapiens) (UniProt P18825)	0.00495
CC(C)(C)OC(=O)N1CCCC1C(=O)NC(Cc1ccccc1)C(=O)O (stereo not drawn) (Boc-Pro-Phe-OH; configuration not given here)	Alpha-2C adrenergic receptor (Homo sapiens) (UniProt P18825)	0.00669
O=C(NCC(c1cccnc1)N1CCN(c2ccccc2)CC1)c1ccc2c(c1)OCO2 (stereo not drawn)	Alpha-2C adrenergic receptor (Homo sapiens) (UniProt P18825)	0.00563
Cc1c(C#N)c2ncnc(-c3ccccc3)c2n1-c1ccccc1	Alpha-2C adrenergic receptor (Homo sapiens) (UniProt P18825)	0.00601
COC(=O)C1(C#N)C(c2ccccc2)C1(C(=O)OC)C(=O)OC (stereo not drawn)	Alpha-2C adrenergic receptor (Homo sapiens) (UniProt P18825)	0.00516

Next up:
Any idea what slope was measured for COc1ccc(CNc2nc(NCc3ccc(OC)cc3)n(S(C)(=O)=O)n2)cc1 ?
0.00366

====

# Tested Target: Voltage-gated potassium channel subunit beta-2 (Rattus norvegicus) (UniProt P62483)
# Sequence (P62483 whole entry, looked up): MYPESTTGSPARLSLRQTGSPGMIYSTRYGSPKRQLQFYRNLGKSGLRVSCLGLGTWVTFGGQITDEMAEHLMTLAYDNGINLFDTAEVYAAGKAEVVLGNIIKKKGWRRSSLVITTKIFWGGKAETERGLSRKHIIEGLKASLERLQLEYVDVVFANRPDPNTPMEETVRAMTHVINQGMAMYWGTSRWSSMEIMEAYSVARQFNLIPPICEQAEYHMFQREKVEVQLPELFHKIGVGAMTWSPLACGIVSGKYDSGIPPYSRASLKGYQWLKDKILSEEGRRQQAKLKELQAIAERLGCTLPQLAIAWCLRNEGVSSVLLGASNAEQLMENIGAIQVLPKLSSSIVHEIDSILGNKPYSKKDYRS
# Method: KvBeta enzyme negative modulators, primary screen, biochemical, NADPH fluorescence (AID 622);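 note: slope of raw intensity against log time taken from 70 to 1610 s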
# Run Parameters: recombinant KvBeta, 4-cyanobenzaldehyde reduction, at 10 µM, stronger effect = higher value
Measured fluorescence slope of individual entries
// return just the number, without any unit appended

Solved cases below.
Compound	fluorescence slope
CCCCOC(=O)c1[nH]c(C)c(C(=O)OC)c1C	-0.481
O=C1OC(N2CCN(C/C=C/c3ccccc3)CC2)c2ccccc21 (stereo unspecified)	-0.458
CCOc1ccc(CNc2ccc3c(c2)ncn3C)cc1	-0.435

Any idea what fluorescence slope was measured for O=C(CSc1nc(-c2ccccc2)cs1)NCc1ccco1 ?
-0.511

Any idea what fluorescence slope was measured for Cc1nn(CC(=O)NCCN2CCOCC2)c(=O)c2ccccc12 ?
-0.469

Any idea what fluorescence slope was measured for CC(=O)N1CCN(C(=O)COc2ccc(Br)cc2)CC1 ?
-0.592

Any idea what fluorescence slope was measured for CCc1noc(C)c1C(=O)NCCc1ccc(OC)c(OC)c1 ?
-0.468

====

# Tested Target: Muscarinic acetylcholine receptor M4 (Homo sapiens) (UniProt P08173)
# Sequence (P08173 whole entry, looked up): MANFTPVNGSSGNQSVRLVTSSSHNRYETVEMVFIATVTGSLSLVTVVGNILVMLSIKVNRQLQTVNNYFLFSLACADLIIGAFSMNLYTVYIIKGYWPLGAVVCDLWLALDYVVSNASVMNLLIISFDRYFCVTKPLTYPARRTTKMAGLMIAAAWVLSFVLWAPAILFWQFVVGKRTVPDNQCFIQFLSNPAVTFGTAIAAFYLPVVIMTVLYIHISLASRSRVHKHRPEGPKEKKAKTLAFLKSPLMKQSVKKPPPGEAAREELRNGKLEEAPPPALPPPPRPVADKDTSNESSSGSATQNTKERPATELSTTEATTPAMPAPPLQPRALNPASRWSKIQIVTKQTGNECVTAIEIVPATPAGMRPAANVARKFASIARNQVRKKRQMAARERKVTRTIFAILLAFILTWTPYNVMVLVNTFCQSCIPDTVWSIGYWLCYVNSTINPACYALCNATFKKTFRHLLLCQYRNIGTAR
# Method: compounds altering M4/GIRK thallium flux, either direction, primary screen, M4 allosteric agonist project, cell-based, HEK293 M4/GIRK, BTC-AM (AID 625);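 note: thallium influx through GIRK channels coupled to M4 in HEK293 cells with BTC-AM dye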
# Run Parameters: at 10 µM, actives lie on both sides
The source made the active and inactive calls.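 How the source made its calls: active means fluorescence slope after compound addition differing from the mean of all tested samples at 99.7% confidence, mostly higher but some lower; inactive means the rest.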
Field 'call' accepts y (active), n (inactive)

Below, 5 compounds whose answers are already recorded.
Compound	Assigned Class
CSc1cc(C)nc(N(C)C(C)=O)n1	n
COc1ccc(C2=CC(c3ccc(C)cc3)n3nnnc3N2)cc1 (stereo not drawn)	n
CCCc1nc(N2CCCC2)c(C#N)c2c1CCCC2	n
COc1ccc2[nH]cc(C(=O)CN(C)CCc3ccc(OC)c(OC)c3)c2c1	n
CCOC(=O)C(C(=O)OCC)N(C#N)c1nc(SC)nc(N(C)C)n1	n

Would you mind telling me which call this test gave CCOc1cccc(NC(=O)C2CC(=O)NC(=Nc3ccccc3)S2)c1 (stereo not drawn) ?
n
